Target: Adrenergic receptor alpha (Rattus norvegicus) (UniProt P15823+P23944+P43140+P22086+P19328+P22909)
Assay: Irreversible inhibition of alpha adrenergic receptor in rat vas deferens assessed as inhibition of NE-induced contractions at 2 x 10' -5 M after 30 mins relative to N1,N1'-(2,2'-disulfanediylbis(ethane-2,1-diyl))dioctane-1,8-diamine tetrahydrochloride
Assay type: tissue-based
property: inhibition

Query: Quick one: give measured inhibition for COc1ccccc1CNCCCCCCCCNCCSSCCNCCCCCCCCNCc1ccccc1OC
Reply: 41%

Query: Quick one: give measured inhibition for Cc1ccccc1CNCCCCCCCCNCCSSCCNCCCCCCCCNCc1ccccc1C
Reply: 49%

Query: Quick one: give measured inhibition for NCCCCCCNCCSSCCNCCCCCCN
Reply: 27%

###

Biological target: Adrenergic receptor alpha (Rattus norvegicus) (UniProt P15823+P23944+P43140+P22086+P19328+P22909)
Test: Irreversible inhibition of alpha adrenergic receptor in rat vas deferens assessed as inhibition of NE-induced contractions at 2 x 10' -5 M after 30 mins relative to [N,N'-bis(o-methoxybenzylamino-n-hexyl)cystamine
Type: tissue-based
Assign true (1) whenever inhibition does not fall below 60%; assign false (0) whenever it does.

Query: Does inhibition meet or surpass 60% for COc1cccc(CNCCCCCCNCCSSCCNCCCCCCNCc2cccc(OC)c2)c1 ?
Reply: true (1)

Query: Does inhibition meet or surpass 60% for COc1ccccc1CNCCCCCCN(C)CCSSCCN(C)CCCCCCNCc1ccccc1OC ?
Reply: false (0)

Query: Does inhibition meet or surpass 60% for NCCCCCCNCCSSCCNCCCCCCN ?
Reply: false (0)

Query: Does inhibition meet or surpass 60% for COc1ccc(CNCCCCCCNCCSSCCNCCCCCCNCc2ccc(OC)c(OC)c2)cc1OC ?
Reply: false (0)

Query: Does inhibition meet or surpass 60% for NCCCCCCCCCCNCCSSCCNCCCCCCCCCCN ?
Reply: false (0)

Query: Does inhibition meet or surpass 60% for NCCCCCCCNCCSSCCNCCCCCCCN ?
Reply: true (1)

Query: Does inhibition meet or surpass 60% for COc1ccccc1CNCCCCCCCCNCCSSCCNCCCCCCCCNCc1ccccc1OC ?
Reply: false (0)

Query: Does inhibition meet or surpass 60% for COc1cc(CNCCCCCCNCCSSCCNCCCCCCNCc2cc(OC)cc(OC)c2)cc(OC)c1 ?
Reply: false (0)

Query: Does inhibition meet or surpass 60% for NCCCCCCCCNCCSSCCNCCCCCCCCN ?
Reply: true (1)

Query: Does inhibition meet or surpass 60% for Oc1ccc(CNCCCCCCNCCSSCCNCCCCCCNCc2ccc(O)c(O)c2)cc1O ?
Reply: true (1)

Query: Does inhibition meet or surpass 60% for c1ccc(CNCCCCCCCNCCSSCCNCCCCCCCNCc2ccccc2)cc1 ?
Reply: false (0)

Query: Does inhibition meet or surpass 60% for NCCCCCCCCCCCCNCCSSCCNCCCCCCCCCCCCN ?
Reply: false (0)

Query: Does inhibition meet or surpass 60% for COc1cccc(CNCCCCCCNCCSSCCNCCCCCCNCc2cccc(OC)c2OC)c1OC ?
Reply: false (0)

Query: Does inhibition meet or surpass 60% for CN(CCCCCCCCN)CCSSCCN(C)CCCCCCCCN ?
Reply: true (1)

Query: Does inhibition meet or surpass 60% for Cc1ccccc1CNCCCCCCNCCSSCCNCCCCCCNCc1ccccc1C ?
Reply: true (1)

Query: Does inhibition meet or surpass 60% for COc1ccc(OC)c(CNCCCCCCNCCSSCCNCCCCCCNCc2cc(OC)ccc2OC)c1 ?
Reply: true (1)

Query: Does inhibition meet or surpass 60% for c1ccc(CNCCCCCCNCCSSCCNCCCCCCNCc2ccccc2)cc1 ?
Reply: true (1)

Query: Does inhibition meet or surpass 60% for Clc1cccc(Cl)c1CNCCCCCCCNCCSSCCNCCCCCCCNCc1c(Cl)cccc1Cl ?
Reply: false (0)

Query: Does inhibition meet or surpass 60% for C=CCOc1ccccc1CNCCCCCCNCCSSCCNCCCCCCNCc1ccccc1OCC=C ?
Reply: true (1)

Query: Does inhibition meet or surpass 60% for Clc1ccccc1CNCCCCCCCNCCSSCCNCCCCCCCNCc1ccccc1Cl ?
Reply: false (0)

Query: Does inhibition meet or surpass 60% for Cc1ccccc1CNCCCCCCCCNCCSSCCNCCCCCCCCNCc1ccccc1C ?
Reply: false (0)

Query: Does inhibition meet or surpass 60% for COc1ccc(CNCCCCCCNCCSSCCNCCCCCCNCc2ccc(OC)cc2)cc1 ?
Reply: true (1)
